A set of compounds tested on recombinant CpLDH protein (Cryptosporidium parvum, UniProt Q9GT92, F198L/K295E/R251K), with measured MEAN CpLDH INHIBITION (%):
value.kind: MEAN CpLDH INHIBITION (%)

1. CC1=CC23C(COC(=O)C24CO4)C(C(=O)O)=CC3C1C.NCc1ccccc1 (centres unmarked) = -0.26%
2. Cc1cc(O)c2c(c1)C(=O)c1cc(O)cc(O)c1C2=O = -6.79%
3. NC(=O)c1c([N+](=O)[O-])cc(C(F)(F)F)cc1[N+](=O)[O-] = -12.99%
4. Clc1cc2nc[nH]c2cc1Cl = -5.75%
5. COc1ccc(C2=Nc3ccccc3SC(C)C2)cc1 (centres unmarked) = -5.00%

====

# System: HCT-8 cells
# test.details: Compound cytotoxicity assay (WST-1 cell proliferation reagent)
value.kind: IC50 (µM)

1) O=[N+]([O-])c1cccc2c(N=Nc3ccc4ccccc4c3O)c(O)cc(S(=O)(=O)O)c12.[Na+] = 103
2) N#CCCN(CCC#N)Cc1cc(O)c(CN(CCC#N)CCC#N)cc1O = 142
3) O=C(O)[C@@H]1[C@H](C(=O)O)[C@]2(Cl)C(Cl)=C(Cl)[C@@]1(Cl)C2(Cl)Cl = 96.8
4) COC(=O)C1=C(C(=O)OC)SC2(S1)C(C(=O)OC)=C(C(=O)OC)Sc1c2ssc1=O = 283
5) COc1ccc(/C=C/C(=O)Oc2cc(O)cc(O)c2)cc1 = 156
6) O=S(=O)(O)c1cc(N=Nc2cc(S(=O)(=O)O)c3cccnc3c2O)ccc1/C=C/c1ccc(N=Nc2cc(S(=O)(=O)O)c3cccnc3c2O)cc1S(=O)(=O)O = 116
7) O=Cc1cc([N+](=O)[O-])no1 = 265
8) Cc1ccc2c(sc(-c3ccc4c(c3)sc(-c3ccc(N(C)C)cc3)[n+]4C)[n+]2C)c1S(=O)(=O)[O-].[Cl-] = 106

====

MEAN CpLDH INHIBITION (%) data for recombinant CpLDH protein (Cryptosporidium parvum, UniProt Q9GT92, F198L/K295E/R251K) follow.
value.kind: MEAN CpLDH INHIBITION (%)

1) O=[N+]([O-])c1cc(-c2nc(=S)[nH][nH]2)ccc1O [NSC635563] = -59.68
2) NC(=O)NO [NSC32065] = -2.35
3) Cn1ncc2cc3c(Nc4ccc(Cl)cc4)cccc3nc21 [NSC622732] = -35.66
4) CN1C(Cl)=NS(=O)(=O)c2ccccc21 [NSC373853] = -15.72
5) CCCCC(/C=N/N=C(N)N)CC.Cc1cc(O)c(C(C)C)cc1S(=O)(=O)O [NSC66300] = -42.12
6) O=Nc1ccc(O)c2ncccc12 [NSC3852] = -37.64

====

# target.under.test: recombinant CpLDH protein (Cryptosporidium parvum, UniProt Q9GT92, F198L/K295E/R251K)
Residues, ends and D or L forms follow the SMILES beside them. *: point of attachment. CH2Cl = ClC*
value.kind: MEAN CpLDH INHIBITION (%)

1. Cc1nc(-c2cccnc2)sc1C(=O)/C=C/c1ccc(Cl)cc1Cl = -13.66
2. NC1(C(=O)O)CCCC1 = -29.26
3. COc1cc2c3c(c1OC)-c1cc4c(cc1CC3(C#N)N(C(=O)c1ccccc1)CC2)OCO4 (centres unmarked) = -0.33
4. CN/N=C(\C)C(CN1CCCCC1)C(C1=C(O)c2ccccc2OC1)c1ccccc1.Cl (centres unmarked) = -56.81
5. O/N=C(/CC(O)(C(F)(F)F)C(F)(F)F)c1cccc(Cl)c1 = -28.29
6. CC(=O)NC(CC(C)C)C(=O)NC(Cc1ccccc1)C(=O)CCl (stereo not drawn) [NSC173905] (Ac-Leu-Phe-CH2Cl; configuration not given here) = -39.37
7. [O-][n+]1ccccc1[S-].[O-][n+]1ccccc1[S-].[Zn+2] = -17.03
8. O=C1C=C(Nc2cccnc2)c2ccccc2C1=O = -66.55
9. Nc1ncnc2c1ncn2C1OC(CO)C(O)C1O (centres unmarked) = -12.00
10. O=C(/C=C/c1c(O)ccc2ccccc12)c1cccc(O)c1 = -25.27
11. O=C1/C(=C/c2ccc([N+](=O)[O-])cc2)Sc2scc(-c3cccc([N+](=O)[O-])c3)[n+]21.[Cl-] = -68.44
12. CC(C)[Si]1(C(C)C)OCC2OC(n3cnc4c(N)ncnc43)C(N)C2O[Si](C(C)C)(C(C)C)O1 (centres unmarked) = -17.98
13. CCCCS(=N)(=O)CCC(N)C(=O)O (centres unmarked) = -24.75
14. O=c1c(Br)c(-c2ccccc2)[nH]c2ccccc12 = -13.98
15. O=C(CCCN1CCC(C(O)c2ccc(F)cc2)CC1)c1ccc(F)cc1 (centres unmarked) = -0.97
16. Cc1nc(C(N)=S)sc1C(=O)CC(=O)C(=O)Nc1c(C(C)C)cccc1C(C)C = -4.29
17. COc1ccccc1Cc1nc(-c2ccccc2)nn(C2OC(COC(C)=O)C(OC(C)=O)C(OC(C)=O)C2OC(C)=O)c1=S (centres unmarked) = -25.33
18. N.N.[Cl][Pt][Cl] = -45.38
19. CC1(C)[C@@H]2CC[C@@]1(CS(=O)(=O)O)C(=O)C2.CN1[C@@H](c2ccccc2)CC(=NO)C[C@H]1c1ccccc1 = -9.54
20. O=C([CH-]C(=O)C(F)(F)F)c1ccccc1.O=C([CH-]C(=O)C(F)(F)F)c1ccccc1.O=C([CH-]C(=O)C(F)(F)F)c1ccccc1.O=C([CH-]C(=O)C(F)(F)F)c1ccccc1.[Eu+3].c1ccncc1 = 25.71
21. O=Cc1cc([N+](=O)[O-])no1 = 48.62
22. COc1ccccc1[S+]([O-])Nc1ccccc1 (centres unmarked) = -16.89
23. CNC(=S)N/N=C/c1ccc([N+](=O)[O-])s1 = -46.26
24. COc1ccc(S(=O)(=O)N/N=C/C(=O)O)cc1 = -67.55
25. Cl.NC(=O)c1cn(C2OC(CO)C(O)C2O)c2ncnc(N)c12 (centres unmarked) = -33.40
26. COc1cc2oc3cc(=O)cc4oc(-c5ccccc5)cc(c2c2c1CCC(c1ccccc1)O2)c43 (centres unmarked) = -15.03
27. CC(C)(Br)C(=O)C(Br)Br = -2.97
28. Cc1ccccc1OCC(COC(=O)Nc1ccccc1)OC(=O)Nc1ccccc1 (centres unmarked) = -3.02
29. C[n+]1ccc(Nc2ccc(NC(=O)c3ccc(Nc4cc[n+](C)c5ccc([N+](=O)[O-])cc45)cc3[N+](=O)[O-])cc2)cc1.Cl = -11.45
30. Nc1ccccc1C(=O)NC(=O)Nc1ccc(Oc2ncc(Br)cn2)c(Cl)c1 = -42.32
31. O=S(=O)(O)c1cc(N=Nc2cc(S(=O)(=O)O)c3cccnc3c2O)ccc1/C=C/c1ccc(N=Nc2cc(S(=O)(=O)O)c3cccnc3c2O)cc1S(=O)(=O)O = 43.74
32. O=c1cc(O)ccn1[C@@H]1O[C@H](CO)[C@@H](O)[C@H]1O = -22.36
33. CC(=O)N=C1N(/C=C2\C(=O)Oc3ccccc3C2=O)C(=O)/C(=C/c2ccccc2Cl)N1C = -56.68
34. CCN(CC)CCNC(=O)c1nn(-c2ccc(Cl)cc2)c2c1CCc1cc(OC)ccc1-2 = -45.22
35. Cc1nc2c(nc1C)C(=O)c1ccccc1C2=O = -40.33

====

As an illustration, consider measured MEAN CpLDH INHIBITION (%) for compounds on recombinant CpLDH protein (Cryptosporidium parvum, UniProt Q9GT92, F198L/K295E/R251K).
value.kind: MEAN CpLDH INHIBITION (%)

1) N#CC(C#N)=Cc1cccc(Oc2ccccc2)c1 = -51.68%
2) CC(=O)[O][Sn]([CH2]c1ccccc1)([CH2]c1ccccc1)[CH2]c1ccccc1 = -58.07%
3) N#CC(C#N)=Cc1ccc(Oc2ccccc2)cc1 = -52.45%
4) CN1CCCC2C(c3ccccc3)C(C3=NCCCC3)C(c3ccccc3)CC21.Cl (centres unmarked) = -58.72%
5) CC[C@@]1(O)C[C@H](O[C@H]2C[C@H](N(C)C)[C@H](O[C@H]3C[C@H](O)[C@H](O[C@H]4C[C@H](O)[C@H](O)[C@H](C)O4)[C@H](C)O3)[C@H](C)O2)c2c(cc3c(c2O)C(=O)c2c(O)ccc(O)c2C3=O)[C@H]1C(=O)OC = -47.33%
6) O=C1C(CN2CCCCC2)CCCC1CN1CCCCC1 (centres unmarked) = -37.56%
7) O=C1NC(c2cccc3ccccc23)Nc2ccc(Cl)cc21 (centres unmarked) = -17.73%
8) COc1ccc(N=Cc2ccc(N(CCC#N)S(=O)(=O)c3ccccc3)cc2C)cc1 = -33.57%

Source: paper PMC6687188
